Molecular target: T1, Recombinant human sgM-CSF (human, UniProt P09603 33-255)
T1 construct: also called human secreted glycosylated M-CSF; Human M-CSF
T1 sequence: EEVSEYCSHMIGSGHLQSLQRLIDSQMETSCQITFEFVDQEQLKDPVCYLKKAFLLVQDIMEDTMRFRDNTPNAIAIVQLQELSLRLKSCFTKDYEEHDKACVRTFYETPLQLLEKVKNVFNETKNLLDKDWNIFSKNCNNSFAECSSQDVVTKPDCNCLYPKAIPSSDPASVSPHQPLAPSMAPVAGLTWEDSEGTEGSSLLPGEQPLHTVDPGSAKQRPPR
Assay: MSD receptor binding inhibition: 12.5 pM human sgM-CSF preincubated with antibody, binding to coated human CSF1-R-Fc
Measured pIC50 of individual entries
pIC50 here: minus log base 10 of the concentration, concentration in moles per litre.

Use these answered entries as a reference point.
• Meriem, IgG1_D265A (antibody, V domains shown, tested as IgG1 with D265A in the Fc (EU index)) VH: QVQLQQSGPGLVKPSQTLSLTCAISGDSVSTSSAAWNWIRQSPSRGLEWLGRTYYRSKWKKEYAQSVKSRITINPDTSKNQFSLQLNSVTPEDTAVYYCARDRYYYSAFDYWGQGTLVTVSS VL: QSALTQPASVSGSPGQSITISCTGTSSDVGGYNSVSWYQQHPGKAPKLIIYAVSNRPSGVSNRFSGSKSGNTASLTISGLQAEDEADYYCASYDERFTRVFGGGTKLTVLG = 11.15
• Madeleine, IgG1_D265A (antibody, V domains shown, tested as IgG1 with D265A in the Fc (EU index)) VH: QVQLQQSGPGLVKPSQTLSLTCAISGDSVSSNSAAWNWIRQSPSRGLEWLGRTYYRSKWKKEYAQSVKSRITINPDTSKNQFSLQLNSVTPEDTAVYYCARDRYYYSAFDYWGQGTLVTVSS VL: QSALTQPASVSGSPGQSITISCTGTSSDVGGYNSVSWYQQHPGKAPKLMIYAVSNRPSGVSNRFSGSKSGNTASLTISGLQAEDEADYYCASYDERFTRVFGGGTKLTVLG = 11.25
• Maelle, IgG1_D265A (antibody, V domains shown, tested as IgG1 with D265A in the Fc (EU index)) VH: QVQLQQSGPGLVKPSQTLSLTCAISGESVSTSSAAWNWIRQSPSRGLEWLGRTYYRSKWKKEYAQSVKSRITINPDTSKNQFSLQLNSVTPEDTAVYYCARDRYYYSAFDYWGQGTLVTVSS VL: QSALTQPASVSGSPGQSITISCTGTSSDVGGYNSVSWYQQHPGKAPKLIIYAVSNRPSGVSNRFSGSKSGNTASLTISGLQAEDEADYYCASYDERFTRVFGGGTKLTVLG = 11.28

Task item: Please report the recorded pIC50 for Laurine, IgG1_D265A (antibody, V domains shown, tested as IgG1 with D265A in the Fc (EU index); Parental antibody of Madeleine, Maelle, Meriem) VH: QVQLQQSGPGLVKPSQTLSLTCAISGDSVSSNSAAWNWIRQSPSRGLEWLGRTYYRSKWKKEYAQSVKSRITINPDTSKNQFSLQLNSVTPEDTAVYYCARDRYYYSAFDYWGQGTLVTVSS VL: DIALTQPASVSGSPGQSITISCTGTSSDVGGYNSVSWYQQHPGKAPKLMIYAVSNRPSGVSNRFSGSKSGNTASLTISGLQAEDEADYYCASYDERFTRVFGGGTKLTVLG .
Reply: 11.31

Task item: Thanks! And HeRX1-10G1, IgG1_D265A (antibody, V domains shown, Prior art antibody; tested as IgG1 with D265A in the Fc (EU index)) VH: QVQLQESGPGLVKPSQTLSLTCTVSDYSITSDYAWNWIRQFPGKGLEWMGYISYSGSTSYNPSLKSRITISRDTSKNQFSLQLNSVTAADTAVYYCASFDYAHAMDYWGQGTTVTVSS VL: DIVLTQSPAFLSVTPGEKVTFTCQASQSIGTSIHWYQQKTDQAPKLLIKYASESISGIPSRFSGSGSGTDFTLTISSVEAEDAADYYCQQINSWPTTFGGGTKLEIKR ?
Reply: 10.55

Task item: Same again, this time with Satine, IgG1_D265A (antibody, V domains shown, tested as IgG1 with D265A in the Fc (EU index)) VH: EVQLVESGGGLVKPGGSLRLSCAASGFTFSIYAMSWVRQAPGKGLEWVGRIKSNADGGTTEYAAPVKGRFTISRDDSKNTLYLQMNSLKTEDTAVYYCARMRYYSDLYFDPWGQGTLVTVSS VL: SYELTQPPSVSVSPGQTASITCSGDKLGQKYVSWYQQKPGQSPVLVISQDRKRPSGIPERFSGSNSGNTATLTISGTQAEDEADYYCQTWTHLQWVFGGGTKLTVLG
Reply: 10.82

Task item: Continue with Servane, IgG1_D265A (antibody, V domains shown, tested as IgG1 with D265A in the Fc (EU index)) VH: EVQLVESGGGLVKPGGSLRLSCAASGFTFSTYAISWVRQAPGKGLEWVGFIKSKHNSGTTEYAAPVKGRFTISRDDSKNTLYLQMNSLKTEDTAVYYCARMRYYSDLYFDPWGQGTLVTVSS VL: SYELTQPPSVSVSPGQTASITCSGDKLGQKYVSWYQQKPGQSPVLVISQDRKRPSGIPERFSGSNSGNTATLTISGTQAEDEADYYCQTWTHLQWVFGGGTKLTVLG
Reply: 10.50

Task item: Now consider Romaine, IgG1_D265A (antibody, V domains shown, tested as IgG1 with D265A in the Fc (EU index); Parental antibody of Satine, Servane) VH: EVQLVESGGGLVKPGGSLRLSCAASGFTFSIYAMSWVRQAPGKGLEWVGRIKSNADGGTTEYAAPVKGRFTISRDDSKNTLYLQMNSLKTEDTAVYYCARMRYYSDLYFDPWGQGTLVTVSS VL: DIELTQPPSVSVSPGQTASITCSGDAIGSKYVHWYQQKPGQAPVLVISKDNKRPSGIPERFSGSNSGNTATLTISGTQAEDEADYYCQTATVSSYWWVFGGGTKLTVLG .
Reply: 11.04

Task item: Here is the next binder: HeRX1-10G1, IgG1 (antibody, V domains shown, tested as IgG1) VH: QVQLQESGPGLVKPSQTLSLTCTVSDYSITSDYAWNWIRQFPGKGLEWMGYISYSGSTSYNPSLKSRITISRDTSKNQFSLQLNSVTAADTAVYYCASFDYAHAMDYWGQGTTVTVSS VL: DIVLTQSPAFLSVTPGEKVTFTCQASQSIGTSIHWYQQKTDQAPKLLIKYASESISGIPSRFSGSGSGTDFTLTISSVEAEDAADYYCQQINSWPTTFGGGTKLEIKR
Reply: 10.58

Task item: Also need Celine, IgG1_D265A (antibody, V domains shown, tested as IgG1 with D265A in the Fc (EU index)) VH: QVQLQQSGPGLVKPSQTLSLTCAISGDSVSTSSAAWNWIRQSPSRGLEWLGRTYYRSKWKHEYAVSVKSRITINPDTSKNQFSLQLNSVTPEDTAVYYCARDRYYYSAFDYWGQGTLVTVSS VL: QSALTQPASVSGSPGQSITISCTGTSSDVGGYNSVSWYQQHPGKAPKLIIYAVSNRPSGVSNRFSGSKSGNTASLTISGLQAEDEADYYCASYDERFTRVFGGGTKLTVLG , thanks.
Reply: 11.33

Numbers sourced from patent US20180057581A1.
